Numbers sourced from patent US20130261178A1.

TARGET SYSTEM: beta1-adrenoceptor (Homo sapiens)
Sequence (P08588 whole entry): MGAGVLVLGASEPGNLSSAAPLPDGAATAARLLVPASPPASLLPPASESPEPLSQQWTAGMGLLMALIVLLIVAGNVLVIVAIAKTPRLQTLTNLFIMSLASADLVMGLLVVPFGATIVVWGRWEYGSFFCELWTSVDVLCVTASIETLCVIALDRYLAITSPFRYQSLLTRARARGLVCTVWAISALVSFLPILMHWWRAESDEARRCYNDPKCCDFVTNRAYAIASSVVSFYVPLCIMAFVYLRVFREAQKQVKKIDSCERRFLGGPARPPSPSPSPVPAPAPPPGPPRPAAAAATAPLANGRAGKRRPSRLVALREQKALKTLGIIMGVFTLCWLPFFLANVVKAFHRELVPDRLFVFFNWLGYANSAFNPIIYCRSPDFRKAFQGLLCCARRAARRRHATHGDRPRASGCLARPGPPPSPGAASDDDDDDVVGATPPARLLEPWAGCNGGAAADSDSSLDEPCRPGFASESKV
PROTOCOL SUMMARY: 3H-CGP12177 whole-cell binding, CHO cells expressing human beta1-adrenoceptor
Set-up: expressed in transfected cells; host or cells: CHO cells
STUDY CONDITIONS: 3H-CGP 12177 whole cell binding, mean ± s.e.mean
# strict inequality: Beta 1 Log KD < -8 yields rule met, everything else yields rule not met

Answered examples (6):
1) O=C(NCCNCC(O)COc1ccc(OCCOC2CCCC2)cc1)Nc1ccc(F)cc1 (stereo not drawn) [47j] | rule not met
2) O=C(NCCNCC(O)COc1ccc(OCCOC2CCCC2)cc1)Nc1ccccc1Cl (stereo not drawn) [47k] | rule not met
3) O=C(NCCNCC(O)COc1ccc(OCCOCCc2ccc(F)cc2)cc1)Nc1ccc(O)cc1 (stereo not drawn) [46b] | rule met
4) O=C(NCCNCC(O)COc1ccc(OCCOC2CCCC2)cc1)Nc1ccccc1C(F)(F)F (stereo not drawn) [47q] | rule not met
5) O=C(NCCNCC(O)COc1ccc(OCCOC2CCCC2)cc1)Nc1ccc(C(F)(F)F)cc1 (stereo not drawn) [47s] | rule not met
6) CC(=O)Oc1ccc(C(=O)NCCNCC(O)COc2ccc(OCCOC3CCCC3)cc2)cc1 (stereo not drawn) [62e] | rule met

// next entry
Consider the compound COc1ccccc1NC(=O)NCCNCC(O)COc1ccc(OCCOC2CCCC2)cc1 (stereo not drawn) [47e] . Is its Beta 1 Log KD strictly less than -8?
rule not met

---

TARGET SYSTEM: UniProt P08588
PROTOCOL SUMMARY: 3H-CGP12177 whole-cell binding, CHO cells expressing human beta1-adrenoceptor
Parameters: expressed in transfected cells; host or cells: CHO cells
STUDY CONDITIONS: 3H-CGP 12177 whole cell binding, mean ± s.e.mean
Beta 1 Log KD values for the compounds below.

Below are worked cases with known answers.
1. O=C(NCCNCC(O)COc1ccc(OCCOC2CCCC2)cc1)Nc1ccccc1Br (stereo not drawn) [47n] | −7.11 ± 0.01
2. COc1cccc(NC(=O)NCCNCC(O)COc2ccc(OCCOC3CCCC3)cc2)c1 (stereo not drawn) [47f] | −7.76 ± 0.03
3. O=C(NCCNCC(O)COc1ccc(OCCOC2CCCC2)cc1)Nc1cccc(C(F)(F)F)c1 (stereo not drawn) [47r] | −7.77 ± 0.06
4. O=C(NCCNCC(O)COc1ccc(OCCOC2CCCC2)cc1)Nc1ccccc1O (stereo not drawn) [47t] | −6.99 ± 0.08
5. O=C(NCCNCC(O)COc1ccc(OCCOC2CCCC2)cc1)Nc1ccc(Cl)cc1 (stereo not drawn) [47m] | −7.95 ± 0.05

Please report the recorded Beta 1 Log KD for CC(=O)Oc1ccc(CC(=O)NCCNCC(O)COc2ccc(OCCOC3CCCC3)cc2)cc1 (stereo not drawn) [62w] .
−8.09 ± 0.03

Item: O=C(NCCNCC(O)COc1ccc(OCCOC2CCCC2)cc1)Nc1ccc(Br)cc1 (stereo not drawn) [47p]
−7.77 ± 0.04

Also Cc1ccccc1NC(=O)NCCNCC(O)COc1ccc(OCCOC2CCCC2)cc1 (stereo not drawn) [47b] ?
−7.33 ± 0.03

What would you report for O=C(NCCNCC(O)COc1ccc(OCCOC2CCCC2)cc1)Nc1cccc(Br)c1 (stereo not drawn) [47o] ?
−7.92 ± 0.05

---

TARGET SYSTEM: human beta2-adrenoceptor (Homo sapiens)
Construct: expressed in transfected cells; host or cells: CHO cells
PROTOCOL SUMMARY: 3H-CGP12177 whole-cell binding, CHO cells expressing human beta2-adrenoceptor
STUDY CONDITIONS: 3H-CGP 12177 whole cell binding, log KD, mean ± s.e.mean, read-out: Beta 2 Log KD (converted)
Strictly below 90 nM in Kd: Met. Otherwise: Not met.

Example cases with answers are listed next.
1. COc1ccc(NC(=O)NCCNCC(O)COc2ccc(OCCOC3CCCC3)cc2)cc1Cl (centres unmarked) [54b] | Not met
2. NC(=O)c1ccc(OCCNCC(O)COc2ccc(OCCOC3CCCC3)cc2)cc1 (centres unmarked) [67c] | Not met
3. OC(CNCCOc1ccccc1)COc1ccc(OCCOC2CCCC2)cc1 (centres unmarked) [compound 48] | Not met

# input for lookup
In the record for O=C(Cc1cccc(O)c1)NCCNCC(O)COc1ccc(OCCOC2CCCC2)cc1 (centres unmarked) [54j] , is Kd less than 90 nM?
Met

---

TARGET SYSTEM: human beta2-adrenoceptor (Homo sapiens, UniProt P07550)
Construct: expressed in transfected cells; host or cells: CHO cells
Sequence (P07550 whole entry): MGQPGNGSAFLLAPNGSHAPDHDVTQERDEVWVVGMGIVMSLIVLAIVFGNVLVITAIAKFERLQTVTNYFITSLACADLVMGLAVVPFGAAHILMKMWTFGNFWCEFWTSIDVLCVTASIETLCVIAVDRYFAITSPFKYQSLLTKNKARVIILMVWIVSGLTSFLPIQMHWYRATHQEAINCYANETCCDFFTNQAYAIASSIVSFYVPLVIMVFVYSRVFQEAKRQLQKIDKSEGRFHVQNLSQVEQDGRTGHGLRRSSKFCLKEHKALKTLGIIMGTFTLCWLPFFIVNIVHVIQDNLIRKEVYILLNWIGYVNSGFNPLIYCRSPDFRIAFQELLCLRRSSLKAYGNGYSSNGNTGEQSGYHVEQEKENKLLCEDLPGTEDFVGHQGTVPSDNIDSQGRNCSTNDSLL
PROTOCOL SUMMARY: 3H-CGP12177 whole-cell binding, CHO cells expressing human beta2-adrenoceptor
STUDY CONDITIONS: 3H-CGP 12177 whole cell binding, mean ± s.e.mean
VALUE TYPE: Beta 2 Log KD
Enter the number alone.

1) O=C(NCCNCC(O)COc1ccc(OCCOC2CCCC2)cc1)Nc1cccc(C(F)(F)F)c1 (centres unmarked) [47r] | −5.86
2) O=C(NCCNCC(O)COc1ccc(OCCOC2CCCC2)cc1)Nc1ccccc1Br (centres unmarked) [47n] | −6.10
3) CC(=O)Oc1ccc(CC(=O)NCCNCC(O)COc2ccc(OCCOC3CCCC3)cc2)cc1 (centres unmarked) [62w] | −6.59
4) O=C(NCCNCC(O)COc1ccc(OCCOC2CCCC2)cc1)Nc1ccc(F)cc1 (centres unmarked) [47j] | −5.92
5) COc1ccc(NC(=O)NCCNCC(O)COc2ccc(OCCOC3CCCC3)cc2)cc1 (centres unmarked) [47g] | −5.86

What Beta 2 Log KD value was documented for this molecule, O=C(NCCNCC(O)COc1ccc(OCCOC2CCCC2)cc1)Nc1ccc(C(F)(F)F)cc1 (centres unmarked) [47s] ?
−5.76

Also, Cc1cccc(NC(=O)NCCNCC(O)COc2ccc(OCCOC3CCCC3)cc2)c1 (centres unmarked) [47c] please.
−6.06

How about O=C(NCCNCC(O)COc1ccc(OCCOC2CCCC2)cc1)Nc1ccc(O)cc1 (centres unmarked) [47v] ?
−5.45

---

TARGET SYSTEM: human beta2-adrenoceptor (Homo sapiens)
Construct: expressed in transfected cells; host or cells: CHO cells
PROTOCOL SUMMARY: 3H-CGP12177 whole-cell binding, CHO cells expressing human beta2-adrenoceptor
STUDY CONDITIONS: 3H-CGP 12177 whole cell binding, log KD, mean ± s.e.mean, read-out: Beta 2 Log KD (converted)
Label Satisfied when Kd is strictly below 500 nM; otherwise label Not satisfied.

Examples from the recorded data:
1. COc1cccc(CC(=O)NCCNCC(O)COc2ccc(OCCOC3CCCC3)cc2)c1 (stereo not shown) [62s] | Satisfied
2. OC(CNCCOc1ccc(-c2ccccc2)cc1)COc1ccc(OCCOC2CCCC2)cc1 (stereo not shown) [65d] | Not satisfied
3. O=C(Cc1cccc(F)c1)NCCNCC(O)COc1ccc(OCCOC2CCCC2)cc1 (stereo not shown) [62h] | Satisfied
4. CCOCCOc1ccc(OCC(O)CNCCNC(=O)Nc2ccc(O)cc2)cc1 (stereo not shown) [46d] | Not satisfied

Take the compound Cc1cccc(CC(=O)NCCNCC(O)COc2ccc(OCCOC3CCCC3)cc2)c1 (stereo not shown) [62q] and say whether its Kd is less than 500 nM.
Satisfied

Record: O=C(NCCNCC(O)COc1ccc(OCCOC2CCCC2)cc1)c1ccc(O)cc1 (stereo not shown) [54f]
Satisfied

Then Cc1ccccc1CC(=O)NCCNCC(O)COc1ccc(OCCOC2CCCC2)cc1 (stereo not shown) [62p] ?
Satisfied

Now the same for O=C(Cc1ccccc1)NCCNCC(O)COc1ccc(OCCOC2CCCC2)cc1 (stereo not shown) [compound 49]
Satisfied

Now the compound O=C(NCCNCC(O)COc1ccc(OCCOC2CCCC2)cc1)c1ccccc1F (stereo not shown) [54g]
Not satisfied

Same lookup for Nc1ccccc1NC(=O)NCCNCC(O)COc1ccc(OCCOC2CCCC2)cc1 (stereo not shown) [60a] , please.
Not satisfied

---

Parameter: melting point. Scope: all listed entries.

1) O=C(NCCNCC(O)COc1ccc(OCCOC2CCCC2)cc1)Nc1ccccc1Cl (stereo not shown) [47k] | 99 to 103 °C
2) O=C(Cc1cccc(F)c1)NCCNCC(O)COc1ccc(OCCOC2CCCC2)cc1 (stereo not shown) [62h] | 116.5 to 118 °C
3) O=C(NCCNCC(O)COc1ccc(OCCOC2CCCC2)cc1)Nc1ccc(F)cc1 (stereo not shown) [47j] | 130 to 133 °C
4) OC(CNCCOc1ccc(-c2ccccc2)cc1)COc1ccc(OCCOC2CCCC2)cc1 (stereo not shown) (hydrate or solvate) [65d] | 154 to 155 °C
5) OC(CNCCOc1ccccc1)COc1ccc(OCCOC2CCCC2)cc1 (stereo not shown) | 155 to 157 °C

Return reported melting point; argument: O=C(Cc1ccccc1C(F)(F)F)NCCNCC(O)COc1ccc(OCCOC2CCCC2)cc1 (stereo not shown) [62m]
120.5 to 121.5 °C

Next record, please: O=C(NCCNCC(O)COc1ccc(OCCOC2CCCC2)cc1)Nc1ccccc1 (stereo not shown) [47a]
109 to 115 °C

What do you get for O=C(Cc1ccccc1Cl)NCCNCC(O)COc1ccc(OCCOC2CCCC2)cc1 (stereo not shown) [62j] ?
113.5 to 114.5 °C

# iterate: O=C(NCCNCC(O)COc1ccc(OCCOC2CCCC2)cc1)Nc1ccc(O)cc1 (stereo not shown) [47v]
135 to 138 °C

Also, Cc1ccc(NC(=O)NCCNCC(O)COc2ccc(OCCOC3CCCC3)cc2)cc1 (stereo not shown) [47d] please.
142 to 144 °C

Check O=C(NCCNCC(O)COc1ccc(OCCOC2CCCC2)cc1)Nc1cccc(F)c1 (stereo not shown) [47i] too.
108 to 110 °C

Now the same for CCOCCOc1ccc(OCC(O)CNCCNC(=O)Nc2ccc(O)cc2)cc1 (stereo not shown) [46d]
96 to 98 °C

Please do the same for Oc1ccc(OCCNCC(O)COc2ccc(OCCOC3CCCC3)cc2)cc1 (stereo not shown) (hydrate or solvate) [65e] as well.
101 to 103 °C
